- target: T1, biot-AGE-BSA binding to His9-hMSR1 (Homo sapiens, UniProt P21757)
- T1 construct: human MSR1 extracellular domain expressed with a N-terminal nonahistidine tag; His9 (nonahistidine) (N); purchased R&D Systems 2708-MS
- T1 sequence (P21757 77-451 limits assumed): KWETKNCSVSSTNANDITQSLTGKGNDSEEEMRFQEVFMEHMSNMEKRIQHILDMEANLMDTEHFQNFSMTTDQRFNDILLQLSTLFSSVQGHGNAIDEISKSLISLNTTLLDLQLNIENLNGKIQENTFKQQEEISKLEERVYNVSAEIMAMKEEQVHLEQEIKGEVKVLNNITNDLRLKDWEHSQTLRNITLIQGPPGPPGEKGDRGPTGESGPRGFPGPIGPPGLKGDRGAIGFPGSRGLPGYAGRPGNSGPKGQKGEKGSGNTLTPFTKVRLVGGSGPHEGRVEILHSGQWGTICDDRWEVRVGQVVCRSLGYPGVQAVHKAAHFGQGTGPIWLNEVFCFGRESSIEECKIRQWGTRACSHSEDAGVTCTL
- assay_procedure: Competition sandwich ELISA, blocking of biot-AGE-BSA binding
- condition_set: 400 pM biot-AGE-BSA
So basically: Anti-MSR1 antibody (300 nM) blocking of biot-AGE-BSA binding to His9-hMSR1 % Blocking at -40% or higher? That is Fulfilled. Lower than -40%? That is Not fulfilled.

INSERT INTO assay_data (molecule, group) VALUES
  ('H1H21231N-N297Q: modified version of "21231N (H1H21231N-N297Q) anti-MSR1 antibodies" with "a N297Q single point mutation" (antibody, V domains shown) VH: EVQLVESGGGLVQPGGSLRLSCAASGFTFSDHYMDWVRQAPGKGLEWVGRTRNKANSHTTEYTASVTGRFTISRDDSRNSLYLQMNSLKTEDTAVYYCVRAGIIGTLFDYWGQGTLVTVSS VL: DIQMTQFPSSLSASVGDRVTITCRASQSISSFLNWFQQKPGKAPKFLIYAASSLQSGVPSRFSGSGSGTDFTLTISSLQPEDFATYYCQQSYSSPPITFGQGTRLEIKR', 'Not fulfilled'),
  ('H1H21227N: "anti-MSR1 antibodies ... (21227N, 21231N, 21234N) were produced with the original human Fcγ portion"; "H1H" = human IgG1 Fc (antibody, V domains shown, human IgG1 Fc, "anti-MSR1 antibodies ; (21227N, 21231N, 21234N) were produced with the original human Fcγ portion"; "H1H" = human IgG1 Fc) VH: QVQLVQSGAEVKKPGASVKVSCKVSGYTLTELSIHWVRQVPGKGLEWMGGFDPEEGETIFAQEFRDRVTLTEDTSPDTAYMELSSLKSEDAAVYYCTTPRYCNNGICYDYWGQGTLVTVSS VL: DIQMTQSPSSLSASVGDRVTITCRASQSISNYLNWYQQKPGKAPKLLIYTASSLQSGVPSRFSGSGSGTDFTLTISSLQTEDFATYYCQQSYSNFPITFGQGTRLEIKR', 'Fulfilled'),
  ('H1H21227N-N297D: "The 21227N antibody was also produced as a third version with a N297D mutation" (antibody, V domains shown) VH: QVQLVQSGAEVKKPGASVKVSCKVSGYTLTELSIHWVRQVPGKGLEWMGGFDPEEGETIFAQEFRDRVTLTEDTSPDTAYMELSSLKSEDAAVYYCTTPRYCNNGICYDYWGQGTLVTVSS VL: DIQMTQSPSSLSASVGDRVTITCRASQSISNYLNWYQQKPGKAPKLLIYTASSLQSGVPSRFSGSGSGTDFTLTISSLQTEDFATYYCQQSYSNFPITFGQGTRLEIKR', 'Fulfilled'),
  ('H1H21227N-N297Q: "modified versions of 21227N (H1H21227N-N297Q and H1H21227N-N297D)"; anti-MSR1 antibody "with a N297Q single point mutation" (antibody, V domains shown) VH: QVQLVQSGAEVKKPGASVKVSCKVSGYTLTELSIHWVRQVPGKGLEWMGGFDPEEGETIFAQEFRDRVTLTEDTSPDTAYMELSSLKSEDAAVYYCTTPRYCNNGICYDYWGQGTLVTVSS VL: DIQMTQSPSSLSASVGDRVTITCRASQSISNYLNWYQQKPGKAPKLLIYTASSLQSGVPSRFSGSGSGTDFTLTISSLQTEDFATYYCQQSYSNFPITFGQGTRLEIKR', 'Fulfilled'),
  ('H1H21231N: "anti-MSR1 antibodies ... (21227N, 21231N, 21234N) were produced with the original human Fcγ portion"; "H1H" = human IgG1 Fc (antibody, V domains shown, human IgG1 Fc, "anti-MSR1 antibodies ; (21227N, 21231N, 21234N) were produced with the original human Fcγ portion"; "H1H" = human IgG1 Fc) VH: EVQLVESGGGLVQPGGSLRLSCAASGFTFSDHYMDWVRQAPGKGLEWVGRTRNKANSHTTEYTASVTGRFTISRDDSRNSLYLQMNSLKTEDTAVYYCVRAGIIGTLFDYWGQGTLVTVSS VL: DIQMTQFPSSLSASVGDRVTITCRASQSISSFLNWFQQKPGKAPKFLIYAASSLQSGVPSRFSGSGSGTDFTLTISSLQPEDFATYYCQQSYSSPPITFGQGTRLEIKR', 'Not fulfilled');

The origin of these recorded values is patent US12497460B2.
